# assay: AUC (0 to infinity) in Sprague-Dawley rat at 2 mg/kg, iv
# Format: ADME, organism-based
# Parameters: dose 2 mg/kg, route iv
# conditionInfo: in vivo

- testSmiles: "Cl.N[C@H]1CCN(c2c3c(nc4ccc(-c5ccnc(NC(=O)C6CC6)n5)cc24)CCCCC3)C1"
  AUC(0-inf): "115 ng·h/mL"

====

# Tested on: A549
# assay: Antiproliferative activity against human A549 cells assessed as cell growth inhibition after 72 hrs by MTT assay
# Assay type: functional

- testSmiles: "CN1CCN(S(=O)(=O)c2ccc(Nc3cc(-c4ccc5nc6c(c(N7CC[C@H](N)C7)c5c4)CCCCC6)ccn3)cc2)CC1"
  GI50: "3210 nM"
- testSmiles: "N[C@H]1CCN(c2c3c(nc4ccc(-c5ccnc(Nc6cccc(S(=O)(=O)N7CCOCC7)c6)c5)cc24)CCCCC3)C1"
  GI50: "3300 nM"
- testSmiles: "N[C@H]1CCN(c2c3c(nc4ccc(-c5ccnc(C(=O)NC6CC6)c5)cc24)CCCCC3)C1"
  GI50: "> 10000 nM"
- testSmiles: "N[C@H]1CCN(c2c3c(nc4ccc(-c5ccnc(NC(=O)C6CCC6)c5)cc24)CCC3)C1"
  GI50: "195 nM"
- testSmiles: "N[C@H]1CCN(c2c3c(nc4ccc(-c5ccnc(NC(=O)C6CC6)c5)cc24)CCC3)C1"
  GI50: "191 nM"
- testSmiles: "CS(=O)(=O)c1ccc(Nc2cc(-c3ccc4nc5c(c(N6CC[C@H](N)C6)c4c3)CCCCC5)ccn2)cc1"
  GI50: "2780 nM"
- testSmiles: "N[C@H]1CCN(c2c3c(nc4ccc(-c5ccnc(NC(=O)C6CCCC6)c5)cc24)CCCCC3)C1"
  GI50: "83 nM"
- testSmiles: "N[C@H]1CCN(c2c3c(nc4ccc(-c5ccncc5)cc24)CCCCC3)C1"
  GI50: "393 nM"
- testSmiles: "N[C@H]1CCN(c2c3c(nc4ccc(-c5ccnc(Nc6ccc(S(=O)(=O)N7CCNCC7)cc6)c5)cc24)CCCCC3)C1"
  GI50: "7530 nM"
- testSmiles: "N[C@H]1CCN(c2c3c(nc4ccc(-c5ccnc(NC(=O)C6CC6)n5)cc24)CCCCCC3)C1"
  GI50: "64 nM"
- testSmiles: "N[C@H]1CCN(c2c3c(nc4ccc(-c5ccnc(NC(=O)C6CCC6)c5)cc24)CCCCCC3)C1"
  GI50: "109 nM"
- testSmiles: "CCc1cnn2c(NCc3ccc[n+]([O-])c3)cc(N3CCCC[C@H]3CCO)nc12"
  GI50: "6 nM"
- testSmiles: "N[C@H]1CCN(c2c3c(nc4ccc(-c5ccnc(NC(=O)C6CC6)c5)cc24)CCCCCC3)C1"
  GI50: "52 nM"
- testSmiles: "N[C@H]1CCN(c2c3c(nc4ccc(-c5ccnc(NC(=O)C6CC6)n5)cc24)-c2ccccc2CCC3)C1"
  GI50: "9470 nM"
- testSmiles: "N[C@H]1CCN(c2c3c(nc4ccc(-c5ccnc(NC(=O)C6CCC6)c5)cc24)CCCCC3)C1"
  GI50: "77 nM"
- testSmiles: "N[C@H]1CCN(c2c3c(nc4ccc(-c5ccnc(NC(=O)C6CCCCC6)c5)cc24)CCCCC3)C1"
  GI50: "308 nM"
- testSmiles: "N[C@H]1CCN(c2c3c(nc4ccc(-c5ccnc(Nc6ccc(S(=O)(=O)N7CCOCC7)cc6)c5)cc24)CCCCC3)C1"
  GI50: "2610 nM"
- testSmiles: "N[C@H]1CCN(c2c3c(nc4ccc(-c5cccnc5)cc24)CCCCC3)C1"
  GI50: "> 10000 nM"
- testSmiles: "Cl.N[C@H]1CCN(c2c3c(nc4ccc(-c5ccnc(NC(=O)C6CC6)n5)cc24)CCCCC3)C1"
  GI50: "9 nM"
- testSmiles: "N[C@H]1CCN(c2c3c(nc4ccc(-c5ccnc(NC(=O)C6CC6)c5)cc24)CCCCC3)C1"
  GI50: "28 nM"
- testSmiles: "N[C@H]1CCN(c2c3c(nc4ccc(-c5ccnc(F)c5)cc24)CCCCC3)C1"
  GI50: "8440 nM"
- testSmiles: "N[C@H]1CCN(c2c3c(nc4ccc(-c5ccnc(Nc6ccc(S(=O)(=O)N7CCCC7)cc6)c5)cc24)CCCCC3)C1"
  GI50: "2690 nM"
- testSmiles: "N[C@H]1CCN(c2c3c(nc4ccc(-c5cc(NC(=O)C6CC6)ncn5)cc24)CCCCC3)C1"
  GI50: "166 nM"
